Parameter: MIC. Scope: all listed entries.
- Tested on: Candida parapsilosis
- procedure summary: Growth inhibition by CLSI microbroth dilution
- Format: cell-based
- conditions: 48 h, strain AR Bank #0335; >90% growth inhibition
Lab book: enter the figure in µg/mL, no units written.

CC(=O)N1CCN(c2ccc(OCC3COC(Cn4ccnc4)(c4ccc(Cl)cc4Cl)O3)cc2)CC1 (stereo not shown) [KTC, ketoconazole]; 4

Value lookup for MIC; key = O=C(OC[C@H]1O[C@@H](OC(=O)c2cc(O)c(O)c(O)c2)[C@H](OC(=O)c2cc(O)c(O)c(O)c2)[C@@H](OC(=O)c2cc(O)c(O)c(O)c2)[C@@H]1OC(=O)c1cc(O)c(O)c(O)c1)c1cc(O)c(O)c(O)c1 [PGG, penta-O-galloyl-β-D-glucose]
4

Value lookup for MIC; key = C[C@@H]1[C@H](O)[C@@H](C)/C=C/C=C/C=C/C=C/C=C/C=C/C=C/[C@H](O[C@@H]2O[C@H](C)[C@@H](O)[C@H](N)[C@@H]2O)C[C@@H]2O[C@](O)(C[C@@H](O)C[C@@H](O)[C@H](O)CC[C@@H](O)C[C@@H](O)CC(=O)O[C@H]1C)C[C@H](O)[C@H]2C(=O)O [AMB, amphotericin B]
1

Values were extracted from paper PMC10496123.
